# Test system: HCI-001 (organoid from a triple-negative breast cancer xenograft)
# test.description: CTG-3D luminescence at 96 h relative to day-0 seeding control (ratio to day 0); higher = more growth / less cytotoxicity; PDxO 3D drug screen (set 2), 96 h, CTG-3D normalised to day-0 seeding control.
# experimental.parameters: 10 µM; days in culture: 401
Item-by-item account of CTG-3D luminescence at 96 h
API doc: respond with a numeric literal and nothing else, no unit.

Below, each entry is followed by its recorded CTG-3D luminescence at 96 h result.
{"cpd.smiles": "CO[C@H]1C[C@@H]2CC[C@@H](C)[C@@](O)(O2)C(=O)C(=O)N2CCCC[C@H]2C(=O)O[C@H]([C@H](C)C[C@@H]2CC[C@@H](OCCO)[C@H](OC)C2)CC(=O)[C@H](C)/C=C(\\C)[C@@H](O)[C@@H](OC)C(=O)[C@H](C)C[C@H](C)/C=C/C=C/C=C/1C", "CTG-3D luminescence at 96 h": 1.27}
{"cpd.smiles": "CC(C)n1nc(-c2ccc3oc(N)nc3c2)c2c(N)ncnc21", "CTG-3D luminescence at 96 h": 0.657}
{"cpd.smiles": "C[C@@H](Nc1cc(F)cc(F)c1)c1cc(C(=O)N(C)C)cc2c(=O)cc(N3CCOCC3)oc12", "CTG-3D luminescence at 96 h": 1.24}

Request: Recall the recorded CTG-3D luminescence at 96 h for Cc1c(CN2CCN(C(=O)[C@H](C)O)CC2)sc2c(N3CCOCC3)nc(-c3cnc(N)nc3)nc12 with HCI-001 and state it.
Response: 0.676

Request: Ok, now CS(=O)(=O)CCNCc1ccc(-c2ccc3ncnc(Nc4ccc(OCc5cccc(F)c5)c(Cl)c4)c3c2)o1
Response: 1.44

Request: Same thing, different compound: CCOc1ccn(-c2ccc(F)cc2)c(=O)c1C(=O)Nc1ccc(Oc2ccnc(N)c2Cl)c(F)c1
Response: 1.29

###

molecules and their reported CTG-3D luminescence at 96 h
# Test system: MDA-MB-231
# test.description: CTG-3D luminescence at 96 h relative to day-0 seeding control (ratio to day 0); higher = more growth / less cytotoxicity; PDxO 3D drug screen, 96 h, CTG-3D normalised to day-0 seeding control.
# experimental.parameters: 1 µM
Just the number, please, no unit attached.

Request: Give the measured CTG-3D luminescence at 96 h of C=CC(=O)N1CCC[C@@H](n2nc(-c3ccc(Oc4ccccc4)cc3)c3c(N)ncnc32)C1 .
Response: 4.82

Request: Then this molecule: CC(=O)O[C@H]1C(=O)[C@@]2(C)[C@H]([C@H](OC(=O)c3ccccc3)[C@]3(O)C[C@H](OC(=O)[C@H](O)[C@@H](NC(=O)c4ccccc4)c4ccccc4)C(C)=C1C3(C)C)[C@]1(OC(C)=O)CO[C@@H]1C[C@@H]2O
Response: 2

Request: How about Nc1ccn([C@@H]2O[C@H](CO)[C@@H](O)C2(F)F)c(=O)n1 ?
Response: 2

Request: Same lookup for C[C@]12CC[C@@H]3c4ccc(O)cc4C[C@@H](CCCCCCCCC[S+]([O-])CCCC(F)(F)C(F)(F)F)[C@H]3[C@@H]1CC[C@@H]2O (some centres undefined) , please.
Response: 4.8

###

Reported CTG-3D luminescence at 96 h values follow for various compounds
# Tested on: HCI-024 (organoid from a breast cancer xenograft)
# test.description: CTG-3D luminescence at 96 h relative to day-0 seeding control (ratio to day 0); higher = more growth / less cytotoxicity; PDxO 3D drug screen, 96 h, CTG-3D normalised to day-0 seeding control.
# experimental.parameters: 0.1 µM; days in culture: 105
Would you mind answering with just the numeric figure?

Here is how some compounds turned out for CTG-3D luminescence at 96 h.
{"compound": "O=C(O)C1(C(=O)O)CCC1.[NH2-].[NH2-].[Pt+2] [carboplatin]", "readout.name": "CTG-3D luminescence at 96 h", "numeric.readout": 1.52}
{"compound": "Cc1nc(-c2cn3c(n2)-c2ccc(-c4cnn(C(C)(C)C(N)=O)c4)cc2OCC3)n(C(C)C)n1 [taselisib]", "readout.name": "CTG-3D luminescence at 96 h", "numeric.readout": 1.77}
{"compound": "Nc1ccn([C@@H]2O[C@H](CO)[C@@H](O)C2(F)F)c(=O)n1 [gemcitabine]", "readout.name": "CTG-3D luminescence at 96 h", "numeric.readout": 0.795}

Now, please, on to the next compound.
Request: Which CTG-3D luminescence at 96 h is reported with HCI-024 for this entry: CC(=O)O[C@H]1C(=O)[C@@]2(C)[C@H]([C@H](OC(=O)c3ccccc3)[C@]3(O)C[C@H](OC(=O)[C@H](O)[C@@H](NC(=O)c4ccccc4)c4ccccc4)C(C)=C1C3(C)C)[C@]1(OC(C)=O)CO[C@@H]1C[C@@H]2O [paclitaxel] ?
Response: 1.4
